Hey, just so you know, these numbers are from patent US20070128217A1.

# Test system: antibodies in sera from SARS patients (sera 1a, 1b, 2, 6, 37, 62, London, SARS-yellow, SARS-green)
# Format: binding, human
Below, each entry is listed alongside its reported Binding of serum SARS-green to linear peptides of protein X2.
# respond with the number and nothing more

Sequence	Recorded Value
IQLSLLKVTAFQHQN	0.2

GET /value?item= STALQELLIQQWIQF &field=Binding of serum SARS-green to linear peptides of protein X2 returns 0.5

sequence ITMTTVYHITVSQIQ , Binding of serum SARS-green to linear peptides of protein X2 observed: 0.2

What the record says about ILRIGTQVLKTMSLY : Binding of serum SARS-green to linear peptides of protein X2 is 0.4

// recorded Binding of serum SARS-green to linear peptides of protein X2 for TVSQIQLSLLKVTAF : 0.1

So, LLQTLVLKMLHSSSL ? Its Binding of serum SARS-green to linear peptides of protein X2 was 0.5

---

# System: control sera (pooled serum of ten healthy LUMC hospital workers; commercial negative donor pooled serum from the Dutch bloodbank)
# Assay type: binding, human
# Parameters: unit not given here
Listing of entries alongside the reported Binding of Control serum LUMC to linear peptides.

Some sequences with known Binding of Control serum LUMC to linear peptides results, for comparison:
Sequence	Recorded Value
PAGGALIARCWYLHE	0.4
HITVSQIQLSLLKVT	0.8
SLSLHKLLQTLVLKM	0.3
TAQPVKIDNASPAST	0.6
TSLLKTHRMCKYTQS	0.9

Briefly, Binding of Control serum LUMC to linear peptides measured for YQECVRGTTVLLKEP : 0.7

Noted for LFMRFFTLGSITAQP : its Binding of Control serum LUMC to linear peptides reads 0.6

Quick note, Binding of Control serum LUMC to linear peptides for PYNSVTDTIVVTEGD landed at 0.3

// Binding of Control serum LUMC to linear peptides value for ARPKQRRPQGLPNNT : 0.6

// sample DSTDNNQNGGRNGAR , its Binding of Control serum LUMC to linear peptides was 0.7

Binding of Control serum LUMC to linear peptides reading for KELSPRWYFYYLGTG : 0.4

---

# Test system: antibodies in sera from SARS patients (sera 1a, 1b, 2, 6, 37, 62, London, SARS-yellow, SARS-green)
# Type: binding, human
Assay Endpoint: Binding of serum SARS-green to linear peptides of protein X1 of SARS-CoV Urbani
Hey, just send me the number, nothing else.

Value of Binding of serum SARS-green to linear peptides of protein X1 of SARS-CoV Urbani reported for the sequence TGIENATFFIFNKLV is 0.4

Lab book: Binding of serum SARS-green to linear peptides of protein X1 of SARS-CoV Urbani of FLAVFQSATKIIALN noted as 0.3

---

# Tested on: antibodies in sera from SARS patients (sera 1a, 1b, 2, 6, 37, 62, London, SARS-yellow, SARS-green)
# Format: binding, human
Listed here: items and their measured Binding of serum SARS-yellow to looped/cyclic peptides of protein X2 of SARS-CoV Urbani.
Form field (numeric): enter value without unit.

Example results:
Sequence	Recorded Value
LACLCKHKKVSTNLC	0.3
HKLLQTLVLKMLHSS	0.5

Given item RRLLACLCKHKKVST , the value recorded as its Binding of serum SARS-yellow to looped/cyclic peptides of protein X2 of SARS-CoV Urbani is 0.2

Per the record, TALQELLIQQWIQFM has Binding of serum SARS-yellow to looped/cyclic peptides of protein X2 of SARS-CoV Urbani of 0.5

Binding of serum SARS-yellow to looped/cyclic peptides of protein X2 of SARS-CoV Urbani in this record for ITMTTVYHITVSQIQ : 0.3

Entry under test: VILRIGTQVLKTMSL . Its Binding of serum SARS-yellow to looped/cyclic peptides of protein X2 of SARS-CoV Urbani was 0.4
